- Tested on: NCI-H460
- test description: MTT cytotoxicity assay
- Type: cell-based, human
- measurement setup: Homo sapiens, NCI-H460 lung carcinoma, 72 h, read-out: In vitro Inhibitory Concentration (IC50)
pIC50: −log10 of the molar value.

>  <compound>
C1=CC2=NC3=C(CCCC3)C(c3cn(Cc4ccccc4)c4ccccc34)N2C=C1 (stereo not shown) [Compound 4i]

>  <qual>
=

>  <pIC50>
5.26

$$$$
>  <compound>
COc1ccc(C2C3=C(CCCC3)N=C3C=CC=CN32)cc1 (stereo not shown) [Compound 4d]

>  <qual>
<

>  <pIC50>
4.52

$$$$
>  <compound>
C1=CC2=NC3=C(CCCC3)C(c3c[nH]c4ccccc34)N2C=C1 (stereo not shown) [Compound 4j]

>  <qual>
=

>  <pIC50>
5.03

$$$$
>  <compound>
Fc1ccc(C2C3=C(CCCC3)N=C3C=CC(Cl)=CN32)cc1 (stereo not shown) [Compound 4g]

>  <qual>
=

>  <pIC50>
4.38

$$$$
>  <compound>
C1=CC2=NC3=C(CCCC3)C(c3ccccc3)N2C=C1 (stereo not shown) [Compound 4a]

>  <qual>
<

>  <pIC50>
4.52

$$$$
>  <compound>
ClC1=CN2C(=NC3=C(CCCC3)C2c2ccc(Cl)cc2)C=C1 (stereo not shown) [Compound 4f]

>  <qual>
=

>  <pIC50>
4.90

$$$$
>  <compound>
O=[N+]([O-])c1ccc(C2C3=C(CCCC3)N=C3C=CC=CN32)cc1 (stereo not shown) [Compound 4c]

>  <qual>
<

>  <pIC50>
4.52

$$$$

* * *

- Tested on: NCI-H460
- test description: Cell growth inhibition assay (MTT, day 0 subtracted)
- Type: cell-based, human
- measurement setup: Homo sapiens, 72 h, read-out: In vitro Growth Inhibitory Concentration (GI50)
Listed here: items and their measured GI50.
experimental readout: GI50 (µM)

>  <compound>
COc1ccc(C2C3=C(CCCC3)N=C3C=CC=CN32)cc1 (stereo not shown) [Compound 4d]

>  <experimental readout>
GI50

>  <output unit>
µM

>  <qual>
>

>  <endpoint value>
30

$$$$
>  <compound>
ClC1=CN2C(=NC3=C(CCCC3)C2c2ccc(Cl)cc2)C=C1 (stereo not shown) [Compound 4f]

>  <experimental readout>
GI50

>  <output unit>
µM

>  <qual>
=

>  <endpoint value>
9.62

$$$$
>  <compound>
C1=CC2=NC3=C(CCCC3)C(c3c[nH]c4ccccc34)N2C=C1 (stereo not shown) [Compound 4j]

>  <experimental readout>
GI50

>  <output unit>
µM

>  <qual>
=

>  <endpoint value>
7.1

$$$$
>  <compound>
C1=CC2=NC3=C(CCCC3)C(c3ccccc3)N2C=C1 (stereo not shown) [Compound 4a]

>  <experimental readout>
GI50

>  <output unit>
µM

>  <qual>
>

>  <endpoint value>
30

$$$$
>  <compound>
Fc1ccc(C2C3=C(CCCC3)N=C3C=CC(Cl)=CN32)cc1 (stereo not shown) [Compound 4g]

>  <experimental readout>
GI50

>  <output unit>
µM

>  <qual>
=

>  <endpoint value>
17.5

$$$$
>  <compound>
C1=CC2=NC3=C(CCCC3)C(c3cn(Cc4ccccc4)c4ccccc34)N2C=C1 (stereo not shown) [Compound 4i]

>  <experimental readout>
GI50

>  <output unit>
µM

>  <qual>
=

>  <endpoint value>
3.24

$$$$
>  <compound>
O=[N+]([O-])c1ccc(C2C3=C(CCCC3)N=C3C=CC=CN32)cc1 (stereo not shown) [Compound 4c]

>  <experimental readout>
GI50

>  <output unit>
µM

>  <qual>
>

>  <endpoint value>
30

$$$$

* * *

Some compounds, each annotated with its measured pIC50.
- Test system: HFL-1 normal lung fibroblasts
- test description: MTT cytotoxicity assay
- Format: cell-based, human
- measurement setup: Homo sapiens, HFL1, 72 h, read-out: In vitro Inhibitory Concentration (IC50)
pIC50: −log10 of the molar value.
experimental readout: pIC50

>  <compound>
COc1ccc(C2C3=C(CCCC3)N=C3C=CC=CN32)cc1 (stereo not shown) [Compound 4d]

>  <qual>
<

>  <endpoint value>
4.52

$$$$
>  <compound>
ClC1=CN2C(=NC3=C(CCCC3)C2c2ccc(Cl)cc2)C=C1 (stereo not shown) [Compound 4f]

>  <qual>
=

>  <endpoint value>
4.82

$$$$
>  <compound>
C1=CC2=NC3=C(CCCC3)C(c3c[nH]c4ccccc34)N2C=C1 (stereo not shown) [Compound 4j]

>  <qual>
=

>  <endpoint value>
5.03

$$$$
>  <compound>
C1=CC2=NC3=C(CCCC3)C(c3ccccc3)N2C=C1 (stereo not shown) [Compound 4a]

>  <qual>
<

>  <endpoint value>
4.52

$$$$
>  <compound>
Fc1ccc(C2C3=C(CCCC3)N=C3C=CC(Cl)=CN32)cc1 (stereo not shown) [Compound 4g]

>  <qual>
=

>  <endpoint value>
4.20

$$$$
>  <compound>
C1=CC2=NC3=C(CCCC3)C(c3cn(Cc4ccccc4)c4ccccc34)N2C=C1 (stereo not shown) [Compound 4i]

>  <qual>
=

>  <endpoint value>
5.06

$$$$
>  <compound>
O=[N+]([O-])c1ccc(C2C3=C(CCCC3)N=C3C=CC=CN32)cc1 (stereo not shown) [Compound 4c]

>  <qual>
<

>  <endpoint value>
4.52

$$$$

* * *

Overview of recorded GI50 for various compounds
- Test system: DU-145
- test description: Cell growth inhibition assay (MTT, day 0 subtracted)
- Format: cell-based, human
- measurement setup: Homo sapiens, 72 h, read-out: In vitro Growth Inhibitory Concentration (GI50)

>  <compound>
C1=CC2=NC3=C(CCCC3)C(c3ccccc3)N2C=C1 (stereo not shown)

>  <qual>
>

>  <GI50 / µM>
30

$$$$
>  <compound>
C1=CC2=NC3=C(CCCC3)C(c3cn(Cc4ccccc4)c4ccccc34)N2C=C1 (stereo not shown)

>  <qual>
=

>  <GI50 / µM>
9.64

$$$$
>  <compound>
O=[N+]([O-])c1ccc(C2C3=C(CCCC3)N=C3C=CC=CN32)cc1 (stereo not shown)

>  <qual>
>

>  <GI50 / µM>
30

$$$$
>  <compound>
ClC1=CN2C(=NC3=C(CCCC3)C2c2ccc(Cl)cc2)C=C1 (stereo not shown)

>  <qual>
=

>  <GI50 / µM>
11.3

$$$$
>  <compound>
COc1ccc(C2C3=C(CCCC3)N=C3C=CC=CN32)cc1 (stereo not shown)

>  <qual>
>

>  <GI50 / µM>
30

$$$$
>  <compound>
C1=CC2=NC3=C(CCCC3)C(c3c[nH]c4ccccc34)N2C=C1 (stereo not shown)

>  <qual>
=

>  <GI50 / µM>
8.1

$$$$
>  <compound>
Fc1ccc(C2C3=C(CCCC3)N=C3C=CC(Cl)=CN32)cc1 (stereo not shown)

>  <qual>
=

>  <GI50 / µM>
7.37

$$$$

* * *

- Test system: HCT-15
- test description: MTT cytotoxicity assay
- Type: cell-based, human
- measurement setup: Homo sapiens, HCT-15 colon cancer, 72 h, read-out: In vitro Inhibitory Concentration (IC50)
experimental readout: IC50 (µM)

>  <compound>
C1=CC2=NC3=C(CCCC3)C(c3cn(Cc4ccccc4)c4ccccc34)N2C=C1 (stereo not shown) [Compound 4i]

>  <experimental readout>
IC50

>  <output unit>
µM

>  <qual>
=

>  <endpoint value>
11.3

$$$$
>  <compound>
Fc1ccc(C2C3=C(CCCC3)N=C3C=CC(Cl)=CN32)cc1 (stereo not shown) [Compound 4g]

>  <experimental readout>
IC50

>  <output unit>
µM

>  <qual>
=

>  <endpoint value>
28.6

$$$$
>  <compound>
O=[N+]([O-])c1ccc(C2C3=C(CCCC3)N=C3C=CC=CN32)cc1 (stereo not shown) [Compound 4c]

>  <experimental readout>
IC50

>  <output unit>
µM

>  <qual>
>

>  <endpoint value>
30

$$$$
>  <compound>
C1=CC2=NC3=C(CCCC3)C(c3c[nH]c4ccccc34)N2C=C1 (stereo not shown) [Compound 4j]

>  <experimental readout>
IC50

>  <output unit>
µM

>  <qual>
=

>  <endpoint value>
10.9

$$$$
>  <compound>
C1=CC2=NC3=C(CCCC3)C(c3ccccc3)N2C=C1 (stereo not shown) [Compound 4a]

>  <experimental readout>
IC50

>  <output unit>
µM

>  <qual>
>

>  <endpoint value>
30

$$$$
>  <compound>
ClC1=CN2C(=NC3=C(CCCC3)C2c2ccc(Cl)cc2)C=C1 (stereo not shown) [Compound 4f]

>  <experimental readout>
IC50

>  <output unit>
µM

>  <qual>
=

>  <endpoint value>
19.3

$$$$
>  <compound>
COc1ccc(C2C3=C(CCCC3)N=C3C=CC=CN32)cc1 (stereo not shown) [Compound 4d]

>  <experimental readout>
IC50

>  <output unit>
µM

>  <qual>
>

>  <endpoint value>
30

$$$$
